biological target: Delta-type opioid receptor (Rattus norvegicus); assay: Displacement of [3H]deltorphin 2 from delta opioid receptor in rat brain membranes
Sequence (P33533 whole entry): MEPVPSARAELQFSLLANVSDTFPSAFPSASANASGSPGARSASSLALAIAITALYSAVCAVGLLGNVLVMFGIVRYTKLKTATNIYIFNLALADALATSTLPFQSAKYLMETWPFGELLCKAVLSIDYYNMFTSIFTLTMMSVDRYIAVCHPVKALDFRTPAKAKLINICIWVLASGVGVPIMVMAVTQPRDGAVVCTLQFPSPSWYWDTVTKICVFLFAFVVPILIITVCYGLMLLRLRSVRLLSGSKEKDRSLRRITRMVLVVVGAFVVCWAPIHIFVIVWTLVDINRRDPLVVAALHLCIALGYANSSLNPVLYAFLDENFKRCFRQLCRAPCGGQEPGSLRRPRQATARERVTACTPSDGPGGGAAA
Numbered stars: 1 amine (or outer) side, 2 acyl side, 3 side chain; on linkers, the order of the positions; unused ones are H or OH. Bridge positions count the residues as written; N and C are the ends. Square brackets hold non-standard residues; d marks the D form. Peptide text beside a SMILES is read from it. I, II: the chains in the order shown. Dmt = Cc1cc(O)cc(C)c1C[C@H](N)C(=O)O; Ethylenediamine = C(CN[*:2])N[*:1]; Tic = O=C(O)[C@@H]1Cc2ccccc2CN1
recorded.metric: pKi
The scale used: pKi is minus the common logarithm of the concentration in molar units.

Some compounds with known pKi results, for comparison:
Tell me its pKi given Cc1cc(O)cc(C)c1C[C@H](N)C(=O)N[C@H]1Cc2ccccc2CN(CC(=O)NCCN(CCNC(=O)CN2Cc3ccccc3C[C@H](NC(=O)[C@@H](N)Cc3c(C)cc(O)cc3C)C2=O)CCNC(=O)CN2Cc3ccccc3C[C@H](NC(=O)[C@@H](N)Cc3c(C)cc(O)cc3C)C2=O)C1=O as the entry.
6.71

Tell me its pKi given Cc1cc(O)cc(C)c1C[C@H](N)C(=O)N[C@@H]1Cc2c([nH]c3ccccc23)CN(CC(=O)NCCNC(=O)CN2Cc3[nH]c4ccccc4c3C[C@@H](NC(=O)[C@@H](N)Cc3c(C)cc(O)cc3C)C2=O)C1=O as the entry.
6.68

Tell me its pKi given Cc1cc(O)cc(C)c1C[C@@H](C(=O)N[C@H]1Cc2c([nH]c3ccccc23)CN(CC(=O)NCCNC(=O)CN2Cc3[nH]c4ccccc4c3C[C@H](NC(=O)[C@H](Cc3c(C)cc(O)cc3C)N(C)C)C2=O)C1=O)N(C)C as the entry.
6.99

Tell me its pKi given Cc1cc(O)cc(C)c1C[C@H](N)C(=O)N[C@@H]1Cc2c([nH]c3ccccc23)CN(CC(=O)NCc2ccc(CNC(=O)CN3Cc4[nH]c5ccccc5c4C[C@@H](NC(=O)[C@@H](N)Cc4c(C)cc(O)cc4C)C3=O)cc2)C1=O as the entry.
6.44

Tell me its pKi given Cc1cc(O)cc(C)c1C[C@H](N)C(=O)N[C@H]1Cc2ccccc2CN(CC(=O)NCCNC(=O)CN2Cc3ccccc3C[C@H](NC(=O)[C@@H](N)Cc3c(C)cc(O)cc3C)C2=O)C1=O as the entry.
6.81

New cases:
Tell me its pKi given Cc1cc(O)cc(C)c1C[C@H](N)C(=O)N1Cc2ccccc2C[C@H]1C(=O)NCCN(CCNC(=O)[C@@H]1Cc2ccccc2CN1C(=O)[C@@H](N)Cc1c(C)cc(O)cc1C)CCNC(=O)[C@@H]1Cc2ccccc2CN1C(=O)[C@@H](N)Cc1c(C)cc(O)cc1C as the entry.
8.43

Tell me its pKi given Cc1cc(O)cc(C)c1C[C@H](N)C(=O)N1Cc2ccccc2C[C@H]1C(=O)NCCNC(=O)[C@@H]1Cc2ccccc2CN1C(=O)[C@@H](N)Cc1c(C)cc(O)cc1C (I: H-[Dmt]-[Tic] / II: H-[Dmt]-[Tic]; linker I:C-II:C via Ethylenediamine) as the entry.
9.02

====

biological target: Mu-type opioid receptor (Rattus norvegicus, UniProt P33535)
Sequence (P33535 whole entry): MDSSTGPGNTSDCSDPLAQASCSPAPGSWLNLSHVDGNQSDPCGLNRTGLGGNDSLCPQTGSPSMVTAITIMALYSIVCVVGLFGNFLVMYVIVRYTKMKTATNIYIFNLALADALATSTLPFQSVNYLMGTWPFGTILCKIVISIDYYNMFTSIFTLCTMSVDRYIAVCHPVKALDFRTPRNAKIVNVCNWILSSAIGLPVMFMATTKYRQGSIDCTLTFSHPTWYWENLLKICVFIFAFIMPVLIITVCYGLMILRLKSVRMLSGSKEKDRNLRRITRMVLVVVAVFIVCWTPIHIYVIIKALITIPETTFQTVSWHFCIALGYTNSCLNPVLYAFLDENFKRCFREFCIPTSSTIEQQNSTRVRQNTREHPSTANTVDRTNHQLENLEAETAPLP
Entries and their Ki values follow.

Tell me its Ki given Cc1cc(O)cc(C)c1C[C@@H](C(=O)N[C@H]1Cc2c([nH]c3ccccc23)CN(CC(=O)NCCNC(=O)CN2Cc3[nH]c4ccccc4c3C[C@H](NC(=O)[C@H](Cc3c(C)cc(O)cc3C)N(C)C)C2=O)C1=O)N(C)C as the entry.
344 nM

New cases:
Tell me its Ki given Cc1cc(O)cc(C)c1C[C@H](N)C(=O)N[C@H]1Cc2ccccc2CN(CC(=O)NCCNC(=O)CN2Cc3ccccc3C[C@H](NC(=O)[C@@H](N)Cc3c(C)cc(O)cc3C)C2=O)C1=O as the entry.
16.1 nM

Tell me its Ki given Cc1cc(O)cc(C)c1C[C@H](N)C(=O)N1Cc2ccccc2C[C@H]1C(=O)NCC/C=C/CCNC(=O)[C@@H]1Cc2ccccc2CN1C(=O)[C@@H](N)Cc1c(C)cc(O)cc1C as the entry.
1.5 nM

Tell me its Ki given Cc1cc(O)cc(C)c1C[C@H](N)C(=O)N[C@H]1Cc2ccccc2CN(CC(=O)NCCN(CCNC(=O)CN2Cc3ccccc3C[C@H](NC(=O)[C@@H](N)Cc3c(C)cc(O)cc3C)C2=O)CCNC(=O)CN2Cc3ccccc3C[C@H](NC(=O)[C@@H](N)Cc3c(C)cc(O)cc3C)C2=O)C1=O as the entry.
8.06 nM
